Tested on: K-562 cells
Test: MTT cytotoxicity assay, K-562 chronic myelogenous leukemia cells
Format: cell-based, human
Settings: 3 days incubation, mean of three independent experiments (± standard deviation)
measure-name: IC50 (µM)
Give the number; µM is assumed, so skip it.

Query string: Query for K-562 cells: what IC50 does the record show for COc1cc(C=C2SC(=S)NC2=O)ccc1OCc1nc2ccccc2c(=O)n1-c1ccc(C(F)(F)F)cc1 ?
Result string: 5.1

---

Entries and their measured IC50 follow.
Test system: HL-60 cells
Experiment: MTT cytotoxicity assay, HL-60 promyelocytic leukemia cells
Format: cell-based, human
Settings: Homo sapiens, HL-60, 72 h, 3 days incubation, mean of three independent experiments (± standard deviation)
Form entry: value (nM) — number only.

Worked set:
• COc1cc(C=C2SC(=S)NC2=O)ccc1OCc1nc2ccccc2c(=O)n1-c1ccc(Cl)cc1 = 5100
• COc1cc(C=C2SC(=S)NC2=O)ccc1OCc1nc2ccccc2c(=O)n1-c1ccc(Br)cc1 = 1200

Switching to the query record.
Query string: State the recorded IC50 for this entry: COc1cccc2c1C(=O)c1c(O)c3c(c(O)c1C2=O)C[C@@](O)(C(=O)CO)C[C@@H]3O[C@H]1C[C@H](N)[C@H](O)[C@H](C)O1 [Doxorubicin, reference compound]
Result string: 11

---

Tested on: AG01523 fibroblasts
Assay: MTT cytotoxicity assay, normal skin fibroblast strain AG01523
Format: cell-based
Conditions: normal human skin fibroblasts, 3 days incubation, mean of three independent experiments (± standard deviation)
measure-name: IC50

Query string: Recorded IC50 for COc1cc(C=C2SC(=S)NC2=O)ccc1OCc1nc2ccccc2c(=O)n1-c1ccc(C(F)(F)F)cc1 with AG01523 fibroblasts, please?
Result string: > 100 µM

---

Tested on: HT-1080 cells
Experiment: MTT cytotoxicity assay, HT-1080 fibrosarcoma cells
Assay type: cell-based, human
Details: Homo sapiens, HT-1080, 72 h, 3 days incubation, mean of three independent experiments (± standard deviation)
Criterion: IC50 strictly less than 40 µM. Met: criterion met. Not met: criterion not met.

* Cc1ccc(-n2c(COc3ccc(C=C4SC(=S)NC4=O)cc3)nc3ccccc3c2=O)cc1 [Compound 38] | criterion met
* O=C1NC(=S)SC1=Cc1ccc(OCc2nc3ccccc3c(=O)n2-c2cccc(Br)c2)cc1 [Compound 36] | criterion not met
* COc1cc(C=C2SC(=S)NC2=O)ccc1OCc1nc2ccccc2c(=O)n1-c1ccc(Br)cc1 [Compound 45] | criterion met
* COc1cc(C=C2SC(=S)NC2=O)ccc1OCc1nc2ccccc2c(=O)n1-c1ccc(F)cc1 [Compound 42] | criterion met
* O=C1NC(=S)SC1=Cc1ccc(OCc2nc3ccccc3c(=O)n2-c2ccc(Cl)cc2)cc1 [Compound 33] | criterion met

Query string: I wonder whether COc1cc(C=C2SC(=S)NC2=O)ccc1OCc1nc2ccccc2c(=O)n1-c1cccc(Cl)c1 [Compound 44] has IC50 below 40 µM. Can you tell?
Result string: criterion met

Query string: Given the entry O=C1NC(=S)SC1=Cc1ccc(OCc2nc3ccccc3c(=O)n2-c2ccccc2)cc1 [Compound 31] , would its reported IC50 be below 40 µM?
Result string: criterion not met

Query string: Quick check: does Cc1cccc(-n2c(COc3ccc(C=C4SC(=S)NC4=O)cc3)nc3ccccc3c2=O)c1 [Compound 39] have IC50 under 40 µM?
Result string: criterion not met

Hello, the source for this data is paper PMC5640562, in case you need it.
